meta.source: patent US7232912B2

TARGET_SYSTEM: CDK4/cyclin D3 (Homo sapiens)
Sequence (P11802 2-303 limits assumed): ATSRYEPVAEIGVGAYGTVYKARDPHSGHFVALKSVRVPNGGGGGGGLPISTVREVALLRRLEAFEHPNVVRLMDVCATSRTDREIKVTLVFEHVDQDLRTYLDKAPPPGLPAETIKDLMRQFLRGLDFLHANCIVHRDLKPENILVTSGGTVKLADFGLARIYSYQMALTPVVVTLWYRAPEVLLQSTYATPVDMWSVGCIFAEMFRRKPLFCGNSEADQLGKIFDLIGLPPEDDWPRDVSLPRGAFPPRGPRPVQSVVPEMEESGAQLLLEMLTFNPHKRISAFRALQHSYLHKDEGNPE
Sequence (P30281 1-264 limits assumed, further chain): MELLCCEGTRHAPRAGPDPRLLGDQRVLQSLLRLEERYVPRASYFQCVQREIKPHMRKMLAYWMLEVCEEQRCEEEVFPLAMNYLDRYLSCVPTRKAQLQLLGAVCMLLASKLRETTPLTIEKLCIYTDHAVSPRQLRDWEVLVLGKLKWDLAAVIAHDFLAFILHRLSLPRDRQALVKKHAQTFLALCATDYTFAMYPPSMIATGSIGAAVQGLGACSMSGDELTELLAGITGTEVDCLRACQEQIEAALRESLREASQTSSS
PROTOCOL_TEXT: Inhibition of CDK4/Cyclin D Retinoblastoma Kinase Activity
ASSAY_CONDITIONS: apparent Ki
Procedure: Cyclin-dependent kinase activity was measured by quantifying the enzyme-catalyzed, time-dependent incorporation of radioactive phosphate from [^32P]ATP or [^33P]ATP into a protein substrate. […] The phosphorylated substrate was then captured on a nitrocellulose or phosphocellulose membrane using a 96-well filtration manifold, and unincorporated radioactivity was removed by repeated washing with 0.85% phosphoric acid. Radioactivity was quantified by exposing the dried membranes to a phosphorimager. […]
pKi: −log10 of the molar value.
QUANTITY_NAME: pKi

1. C(=C\c1n[nH]c2ccc(-c3ccccc3)cc12)/c1ccccc1	5.77
2. Cc1c(CNC2CCCC2)cncc1-c1ccc2[nH]nc(-c3nc4ccccc4[nH]3)c2c1	8.11
3. Oc1ccc(-c2ccc3[nH]nc(-c4nc5ccccc5[nH]4)c3c2)cc1	6.23
4. CN1CCN(c2ccc3[nH]c(-c4n[nH]c5ccc(-c6cncc7ccccc67)cc45)nc3c2)CC1	8.68
5. Oc1cc(F)c(-c2ccc3[nH]nc(-c4nc5ccccc5[nH]4)c3c2)c(F)c1	6.60
6. Clc1cccc2[nH]c(-c3n[nH]c4ccc(-c5cncc6ccccc56)cc34)nc12	7.27
7. Cc1c(-c2ccc3[nH]nc(-c4nc5ccccc5[nH]4)c3c2)cnc2ccccc12	6.82
8. Cc1cc(O)ccc1-c1ccc2[nH]nc(-c3ccccc3)c2c1	5.47

---

TARGET_SYSTEM: CDK2/cyclin A (Homo sapiens)
Construct: cyclin A: E. coli
PROTOCOL_TEXT: Inhibition of CDK2/Cyclin A Retinoblastoma Kinase Activity
ASSAY_CONDITIONS: apparent Ki
pKi: −log10 of the molar value.
Group membership follows pKi per the scheme lower bin (below 7), middle bin (7 to below 9), upper bin (9 or more)

1) Cc1cc(O)ccc1-c1ccc2[nH]nc(-c3ccccc3)c2c1	lower bin
2) Clc1ccncc1-c1ccc2[nH]nc(-c3nc4ccccc4[nH]3)c2c1	middle bin
3) OC1CCN(c2ccc3[nH]nc(/C=C/c4ccccc4)c3c2)CC1	lower bin
4) Cc1c(O)cccc1-c1ccc2[nH]nc(-c3nc4c(CO)cccc4[nH]3)c2c1	middle bin
5) Nc1ccc2[nH]nc(-c3ccc[nH]3)c2c1	lower bin
6) Cc1nc(-c2n[nH]c3ccc(-c4cncc5ccccc45)cc23)[nH]c1-c1ccccc1	middle bin
7) Cc1c(O)cncc1-c1ccc2[nH]nc(-c3nc4ccccc4[nH]3)c2c1	upper bin
8) O=[N+]([O-])c1ccc2[nH]nc(-c3ccc[nH]3)c2c1 [18b′, 5-Nitro-3-(2-Pyrrolyl)-1H-indazole]	lower bin
9) Cc1cnccc1-c1ccc2[nH]nc(/C=C/c3ccccc3)c2c1	lower bin
10) c1ccc(CNc2ccc3[nH]nc(-c4ccc[nH]4)c3c2)cc1	lower bin
11) Fc1cccc2cncc(-c3ccc4[nH]nc(/C=C/c5ccccc5)c4c3)c12	middle bin
12) C(=C\c1n[nH]c2ccc(-c3ccc4ccncc4c3)cc12)/c1ccccc1	lower bin
13) OCc1cccc2[nH]c(-c3n[nH]c4ccc(-c5cncc6ccccc56)cc34)nc12	upper bin

---

pIC50 for assorted molecules
System: HCT 116 cell line
PROTOCOL_TEXT: Inhibition of Cell Growth (MTT tetrazolium salt assay)
Type: cell-based
ASSAY_CONDITIONS: Homo sapiens; HCT 116, MTT, 50% inhibition of growth; read-out: HCT 116 IC50
pIC50: −log10 of the molar value.
QUANTITY_NAME: pIC50

1. Cc1c(O)cncc1-c1ccc2[nH]nc(-c3nc4ccccc4[nH]3)c2c1	6.51
2. OCc1cccc2[nH]c(-c3n[nH]c4ccc(-c5cncc6ccccc56)cc34)nc12	6.74
3. Oc1cc(F)c(-c2ccc3[nH]nc(-c4nc5ccccc5[nH]4)c3c2)c(F)c1	5.74
4. Cc1c(CNc2cccnc2)cncc1-c1ccc2[nH]nc(-c3nc4ccccc4[nH]3)c2c1	6.49
5. Cc1c(C(N)=O)cncc1-c1ccc2[nH]nc(-c3nc4ccccc4[nH]3)c2c1	5.89
6. Cc1c(-c2cccnc2)cncc1-c1ccc2[nH]nc(-c3nc4ccccc4[nH]3)c2c1	6.34
7. CNC(C)c1cccc2[nH]c(-c3n[nH]c4ccc(-c5cncc6ccccc56)cc34)nc12 (centres unmarked)	7.52
8. Cc1c(/C=C/CO)cncc1-c1ccc2[nH]nc(-c3nc4ccccc4[nH]3)c2c1	6.70
9. Cc1ccncc1-c1ccc2[nH]nc(/C=C/c3ccccc3)c2c1	5.72
10. c1ccc2[nH]c(-c3n[nH]c4ccc(-c5cncc6c5CCCN6)cc34)nc2c1	7.10
11. Clc1cccc2[nH]c(-c3n[nH]c4ccc(-c5cncc6ccccc56)cc34)nc12	6.11
